testedTarget: DOR (Rattus norvegicus)
Construct: from tissue
Sequence (P33533 whole entry): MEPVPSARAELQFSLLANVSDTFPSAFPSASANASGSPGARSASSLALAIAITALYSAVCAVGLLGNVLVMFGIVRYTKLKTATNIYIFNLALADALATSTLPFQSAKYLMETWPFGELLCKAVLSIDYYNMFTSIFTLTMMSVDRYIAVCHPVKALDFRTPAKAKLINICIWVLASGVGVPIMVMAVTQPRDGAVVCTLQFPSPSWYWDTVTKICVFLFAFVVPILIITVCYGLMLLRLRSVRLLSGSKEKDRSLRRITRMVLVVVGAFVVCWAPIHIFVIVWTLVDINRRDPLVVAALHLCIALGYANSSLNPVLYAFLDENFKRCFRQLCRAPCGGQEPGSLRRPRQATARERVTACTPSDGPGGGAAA
testMethodNotes: Opioid receptor binding, DOR, rat brain membranes
conditions: Binding Ki DOR, Table 2-6, rat brain membranes
Grouping key: Ki. Bins: Low: < 1 nM; Mid: ≥ 1 nM and < 5 nM; High: ≥ 5 nM

Exercise: Please let me know in which category the item CO[C@@]12CC[C@@H](N[C@@H](C)C(=O)O)[C@@H]3Oc4c(O)ccc5c4[C@@]31CCN(CC1CC1)[C@@H]2C5 belongs.
Solution: High

Exercise: Please let me know in which category the item COC12CCC(NC(CCC(=O)O)C(=O)O)C3Oc4c(O)ccc5c4C31CCN(CC1CC1)C2C5 (centres unmarked) belongs.
Solution: Mid

Exercise: Please let me know in which category the item CO[C@@]12CC[C@@H](N[C@@H](Cc3ccccc3)C(=O)OC(C)(C)C)[C@@H]3Oc4c(O)ccc5c4[C@@]31CCN(CC1CC1)[C@@H]2C5 belongs.
Solution: Mid

Exercise: Please let me know in which category the item CCO[C@@]12CCC(=O)[C@@H]3Oc4c(O)ccc5c4[C@@]31CCN(CC1CC1)[C@@H]2C5 [Compound 14-OEt-NTX, 14-O-Ethylnaltrexone, reference compound] belongs.
Solution: Mid

Exercise: Please let me know in which category the item CO[C@@]12CC[C@H](NCC(=O)O)[C@@H]3Oc4c(O)ccc5c4[C@@]31CCN(CC1CC1)[C@@H]2C5 belongs.
Solution: High

Exercise: Please let me know in which category the item COC12CCC(NC(C(=O)O)C(C)C)C3Oc4c(O)ccc5c4C31CCN(CC1CC1)C2C5 (single isomer, unassigned) [Compound 69] belongs.
Solution: Mid

Exercise: Please let me know in which category the item CO[C@@]12CC[C@@H](N[C@@H](CC(=O)O)C(=O)O)[C@@H]3Oc4c(O)ccc5c4[C@@]31CCN(CC1CC1)[C@@H]2C5 belongs.
Solution: Low

Exercise: Please let me know in which category the item CO[C@@]12CC[C@@H](NCCCC(=O)OC(C)(C)C)[C@@H]3Oc4c(O)ccc5c4[C@@]31CCN(CC1CC1)[C@@H]2C5 belongs.
Solution: Mid

Exercise: Please let me know in which category the item CC[C@H](C)[C@H](N[C@@H]1CC[C@@]2(OC)[C@H]3Cc4ccc(O)c5c4[C@@]2(CCN3CC2CC2)[C@H]1O5)C(=O)O belongs.
Solution: Mid

Exercise: Please let me know in which category the item CO[C@@]12CC[C@@H](NCC(=O)O)[C@@H]3Oc4c(O)ccc5c4[C@@]31CCN(CC1CC1)[C@@H]2C5 belongs.
Solution: Mid

Exercise: Please let me know in which category the item CO[C@@]12CCC(=O)[C@@H]3Oc4c(O)ccc5c4[C@@]31CCN(CC1CC1)[C@@H]2C5 [Compound 14-OMe-NTX, 14-O-Methylnaltrexone, reference compound] belongs.
Solution: High

Exercise: Please let me know in which category the item COC12CCC(NC(C(=O)O)C(C)C)C3Oc4c(O)ccc5c4C31CCN(CC1CC1)C2C5 (single isomer, unassigned) [Compound 71] belongs.
Solution: Low

Exercise: Please let me know in which category the item CC(C)(C)OC(=O)[C@H](Cc1ccccc1)N[C@H]1CC[C@@]2(O)[C@H]3Cc4ccc(O)c5c4[C@@]2(CCN3CC2CC2)[C@H]1O5 belongs.
Solution: Mid

Exercise: Please let me know in which category the item CO[C@@]12CC[C@@H](NCCC(=O)OC(C)(C)C)[C@@H]3Oc4c(O)ccc5c4[C@@]31CCN(CC1CC1)[C@@H]2C5 belongs.
Solution: Low
